Kindly state GI50 for each of the entries shown.
- System: SR leukemia
- Test Description: NCI tumour cell line growth inhibition, 48 h

Use the examples below as a reference point.
O=C(Nc1ccc(Cl)cc1)c1cc2ccccc2cc1O : 3.93 µM
CCSc1nc(N=Cc2cccs2)c2cn[nH]c2n1 : 2.1 µM
CN(C)CCCNC(=O)c1cc(NC(=O)c2cc(NC(=O)c3cc(NC(=O)CCc4c[nH]c5ccccc45)cn3C)cn2C)cn1C : > 100 µM
Cc1cc2c(F)c(Oc3ncnn4cc(OC[C@@H](C)OC(=O)[C@H](C)N)c(C)c34)ccc2[nH]1 : 2.99 µM

Here is the next item to consider.
Briefly, GI50 measured for "O=C(NC(=S)Nc1ccc(Cl)cc1)c1ccccc1" : > 100 µM
